Where do the numbers come from? From paper PMC6388407.

method-summary: MTS cell proliferation assay
Type: cell-based, mouse
test-conditions: mouse
recorded-endpoint: IC20 at 4 h (µM)
// note: answer is a bare numeric in µM

Task: Check the records and state IC20 at 4 h for CC1(C)CC(O)CC(C)(C)N1[O] [4-hydroxy-TEMPO]
Output: 356

====

Tested on: thymidine kinase (Tk) gene of the L5178Y/Tk+/− −3.7.2C mouse lymphoma cell line
method-summary: Mouse lymphoma assay
Format: cell-based
test-conditions: potency ranking by BMDL10, 1 = most potent
# Ranking, MLA with S9 listing for each entry below

Please review the following examples before continuing.
compound: CC1(C)CC(O)CC(C)(C)N1[O] [4-hydroxy-TEMPO]
recorded-endpoint: Ranking, MLA with S9
measurement: 4
//
compound: CC1(C)CC(=O)CC(C)(C)N1[O]
recorded-endpoint: Ranking, MLA with S9
measurement: 1

Task: Tell me its Ranking, MLA with S9 given `COC1CC(C)(C)N([O])C(C)(C)C1` as the entry.
Output: 3

Task: Consider the compound `CC1(C)CCCC(C)(C)N1[O]` . State its measured Ranking, MLA with S9.
Output: 2
